Entry source: ChEMBL document CHEMBL5055623

target: Beta-secretase 1 (Homo sapiens); test: Inhibition of human recombinant BACE1 catalytic domain using FRET substrate
Sequence (P56817 whole entry, the tested form may be a part): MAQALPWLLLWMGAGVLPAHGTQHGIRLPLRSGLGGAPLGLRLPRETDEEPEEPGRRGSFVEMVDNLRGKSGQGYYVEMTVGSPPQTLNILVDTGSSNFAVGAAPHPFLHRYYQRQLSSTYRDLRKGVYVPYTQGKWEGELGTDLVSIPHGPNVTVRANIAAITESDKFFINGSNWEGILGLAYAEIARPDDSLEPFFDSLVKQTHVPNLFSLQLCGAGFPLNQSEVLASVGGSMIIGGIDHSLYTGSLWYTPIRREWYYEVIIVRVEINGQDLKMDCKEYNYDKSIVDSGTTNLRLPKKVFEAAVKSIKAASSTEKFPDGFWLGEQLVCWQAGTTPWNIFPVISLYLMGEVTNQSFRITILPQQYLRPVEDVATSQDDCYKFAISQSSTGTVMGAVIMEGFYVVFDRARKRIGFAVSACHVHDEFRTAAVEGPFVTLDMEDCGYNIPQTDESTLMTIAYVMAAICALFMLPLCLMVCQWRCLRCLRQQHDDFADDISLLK
measuredEndpoint: pIC50
Conceptually, pIC50 converts a concentration in mol/L into minus its log10.

GET /values?readout=pIC50&item= Cc1nc(C#N)cnc1C(=O)Nc1ccc(F)c([C@]2(C)CO[C@@](C)(C(F)(F)F)C(N)=N2)c1
7.21

Same thing, different molecule: C[C@@]1(c2cc(NC(=O)c3ncc(Cl)cc3Cl)ccc2F)CO[C@@](C)(C(F)(F)F)C(N)=N1
8.10

Thanks! And C[C@@]1(c2cc(NC(=O)c3ccc(Br)cn3)ccc2F)CO[C@@](C)(C(F)(F)F)C(N)=N1 (racemic) ?
7.96

Same question, C[C@@]1(c2cc(NC(=O)c3ccc(C#N)cn3)ccc2F)CO[C@@](C)(C(F)(F)F)C(N)=N1 this time
8.22

What about C[C@@]1(c2cc(NC(=O)c3ccc(Br)cn3)ccc2F)CO[C@@](C)(C(F)(F)F)C(N)=N1 ?
7.96

Now the molecule C[C@@]1(c2cc(NC(=O)c3ncc(C#N)cc3Cl)ccc2F)CO[C@@](C)(C(F)(F)F)C(N)=N1
8.22

And the next one, C[C@@]1(c2cc(NC(=O)c3ncc(C#N)cn3)ccc2F)CO[C@@](C)(C(F)(F)F)C(N)=N1 (racemic) ?
7.47
